Assay: qHTS for Inhibitors of Plasmodium falciparum (DD2) proliferation (AID 504314);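 also: parasite DNA measured by SYBR Green fluorescence after red cell lysis; plate controls were DMSO vehicle for no effect and artemisinin wells for full effect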
Conditions: P. falciparum Dd2 in erythrocytes, SYBR Green growth, 72 h; series mostly up to 6.11 µM
Text: Plasmodium falciparum is a virulent malarial parasite that kills 1-2 million people worldwide each year. […] Because mature erythrocytes lack DNA, only Plasmodium-derived DNA is detected. […] Bennett TN, Paguio, M., Gligorijevic, B., Seudieu, C., Kosar, A. D., Davidson, E., and Roepe, P. D. Novel, rapid, and inexpensive cell-based quantification of antimalarial drug efficacy Antimicrobial Agents Chemother. […]
Results filed as inconclusive are left out. The source made the active and inactive calls. Calls follow the shape of the dose curve; as a rule, active = well fitted inhibition curve with a large enough effect; inconclusive = small, poorly fitted or top-dose-only effect; inactive = flat fitted curve, though single readings scatter.

| compound | activity, negative = inhibition |
| --- | --- |
| CC(C)=CCCC(C)=CCON=C1C[C@@H](O)[C@@H](O)[C@@H]2[C@H]3C(=O)N(c4cccc(Oc5ccccc5)c4)C(=O)[C@@H]3CC[C@H]12 | inactive |
| COC1=C[C@H](C(=O)NCCOC(C)=O)[C@@]2(C)Cc3ccccc3[C@@H]2CC1=O | inactive |
| C=CC1=C2C=C(C3CC3)N(Cc3ccc4c(c3)OCO4)C=C2C(=O)C(C)(OC(=O)c2ccco2)C1=O (stereo not drawn) | 4.05% [at 1.12 µM] (inactive) |
| C=CCOC(=O)NC(c1ccc(F)c(F)c1)C(C(=O)COC)C(=O)OC (stereo not drawn) | inactive |
| C=CCN1C=C2C(=O)C(C)(OC(=O)c3ccco3)C(=O)C(C=C)=C2C=C1C1CC1 (stereo not drawn) | 2.08% [at 1.12 µM] (inactive) |
| COC1=CC2C(=O)C(C1=O)[C@H](c1ccccc1)[C@H]2C (stereo partly drawn) | inactive |
| CC1(OC(=O)C2CCCC2)C(=O)C=C2C=C(c3ccsc3)N(CCc3ccccn3)C=C2C1=O (stereo not drawn) | inactive |
| CC(=O)OC[C@H]1O[C@@H](ON=C(C)CCC(=O)OC[C@H]2O[C@H](C#Cc3ccccc3)C=C[C@H]2Oc2ccc(C)cc2)[C@H](OC(C)=O)[C@@H](OC(C)=O)[C@H]1OC(C)=O | inactive |

----------
Experiment: qHTS for Inhibitors of Plasmodium falciparum (7G8) proliferation (AID 504316); also: nearly all actives have a fitted effect of over 65% in size
Settings: P. falciparum 7G8 in erythrocytes, SYBR Green DNA, 72 h; series mostly up to 6.7 µM
Source text: Plasmodium falciparum is a virulent malarial parasite that kills 1-2 million people worldwide each year. Malaria not only inflicts tremendous suffering and morbidity on the human population, but has dramatically influenced the course of civilization with profound sociological and economic implications (Shah, S. 2010). […] Because mature erythrocytes lack DNA, only Plasmodium-derived DNA is detected. […]
Records with an inconclusive call do not appear. The source made the active and inactive calls. The call rests on the fitted dose curve; in most records, active means well fitted inhibition curve with a large enough effect; inconclusive means small, poorly fitted or top-dose-only effect; inactive means flat fitted curve, though single readings scatter.
Outcome codes: 1.0 for active, 0.0 for inactive

| molecule | group |
| --- | --- |
| COC(=O)C1=C(C(=O)OC)[C@@H]2N(Cc3ccccc3)c3ccccc3[C@@]23C[C@@H](C(=O)OC)N(C(=O)c2cc(C)oc2C)C3=N1 | 0.0 |
| CCOC(=O)CN1C(=O)NC(CCc2ccccc2)C(C(=O)OC)=C1C (centres undefined) | 0.0 |
| COC(=O)C1=C(C)N(Cc2ccccc2)C(=NCCc2ccc(O)cc2)NC1c1ccc(Br)cc1 (centres undefined) | 0.0 |
| COC(=O)CC1OC1[C@H](C)[C@@H](OC)C(C)C (some centres undefined) | 1.0 |
| CCOC(=O)CN1C(=O)NC(c2cccs2)C(C(=O)OC)=C1C (centres undefined) | 0.0 |
| C=CCN=C1NC(c2cccc(C(F)(F)F)c2)C(C(=O)OC)=C(C)N1Cc1ccccc1 (centres undefined) | 0.0 |
| Cn1c(-c2ccccc2)c(O)c(=O)c2ccccc21 | 0.0 |
| CCCCC1=CC2=C(c3ccco3)C(=O)C(C)(OC(=O)c3ccc(OC)cc3)C(=O)C2=CN1C(CO)CO (centres undefined) | 0.0 |
| COc1cccc([C@H]2Oc3ccc(OC)cc3C(=NO[C@@H](C)c3cc(-c4c(C)cc(C)cc4C)no3)[C@H]2O)c1 | 0.0 |
| C=CC1=C2C=C(C3CC3)N(Cc3ccccc3)C=C2C(=O)C(C)(OC(=O)c2ccco2)C1=O (centres undefined) | 0.0 |
| C=CC[C@@]1(C(=O)OC)C=C[C@@H](C)[C@H](c2ccccc2Br)N1C(=O)C(F)(F)F | 0.0 |
| COC(=O)N1C2=C(c3ccccc3[C@@H]1CC(=O)O)[C@@H]1O[C@@H](C2)c2ccccc21 | 0.0 |
| C#CCCCON=C1C[C@@H](O)[C@H](O)[C@H]2[C@@H]3C(=O)N(c4ccc(F)cc4F)C(=O)[C@@H]3CC[C@@H]12 | 0.0 |
| C=CCNC(=O)N1CCc2nc(-c3ccccc3)c3c(c2C1)CO[C@@H](C)C3 | 0.0 |
| C=CCOC(=O)NC(c1ccc(F)c(F)c1)C(C(=O)COC)C(=O)OC (centres undefined) | 0.0 |
| C=C(C(C)=O)C(O)c1ccc(Cl)cc1 (centres undefined) | 0.0 |
| C=CCC(Nc1ccc(OC)cc1)C(=O)OCC (centres undefined) | 0.0 |
| COC1(C#C[C@@H]2C=C[C@H](OC(C)=O)[C@@H](COC(C)=O)O2)CCCCC1 | 0.0 |
| COc1cccc([C@@H]2[C@@H](C)CC[C@@H]3C(=O)NC[C@H](O)CN32)c1 | 0.0 |

----------
biological target: D(1A) dopamine receptor (Homo sapiens) (UniProt P21728); experiment: HTS Assay for Allosteric Agonists of the Human D1 Dopamine Receptor: Primary Screen for Potentiators (AID 488982); conditions: HEK293 T-REx D1 inducible cells, calcium flux, kinetic fluorescence; series mostly up to 8.37 µM; also: 0% is about no effect
Sequence (P21728 whole entry, looked up): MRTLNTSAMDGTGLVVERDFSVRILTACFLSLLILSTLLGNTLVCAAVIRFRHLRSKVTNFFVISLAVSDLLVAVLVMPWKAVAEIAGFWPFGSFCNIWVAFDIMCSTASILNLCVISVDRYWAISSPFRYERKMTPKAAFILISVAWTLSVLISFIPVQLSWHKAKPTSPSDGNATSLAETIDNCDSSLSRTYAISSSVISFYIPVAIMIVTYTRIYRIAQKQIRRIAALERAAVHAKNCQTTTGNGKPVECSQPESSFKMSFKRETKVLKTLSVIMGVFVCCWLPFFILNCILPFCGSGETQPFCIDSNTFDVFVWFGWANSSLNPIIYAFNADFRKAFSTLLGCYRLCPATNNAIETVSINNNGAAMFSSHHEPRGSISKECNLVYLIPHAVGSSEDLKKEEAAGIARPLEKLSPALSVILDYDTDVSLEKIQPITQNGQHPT
Results filed as inconclusive are left out. The source made the active and inactive calls. Calls follow the shape of the dose curve; as a rule, active = well fitted activation curve with a large enough effect; inconclusive = small, poorly fitted or top-dose-only effect; inactive = no such curve, though single readings can be large or run the other way.

| molecule | testSystem | outcome |
| --- | --- | --- |
| Nc1c(S(=O)(=O)O)cc(Nc2ccc(Nc3nc(Cl)nc(Nc4ccc(S(=O)(=O)O)cc4)n3)c(S(=O)(=O)O)c2)c2c1C(=O)c1ccccc1C2=O | D(1A) dopamine receptor (Homo sapiens) (UniProt P21728) | inactive |
| CC[N+](CC)(CC)CC | D(1A) dopamine receptor (Homo sapiens) (UniProt P21728) | inactive |
| O=Nc1c(-c2c(O)[nH]c3ccccc23)[nH]c2ccccc12 | D(1A) dopamine receptor (Homo sapiens) (UniProt P21728) | inactive |
| CCc1ccc(/C=C2/SC(=S)NC2=O)cc1 | D(1A) dopamine receptor (Homo sapiens) (UniProt P21728) | inactive |
| C1CCC(N=C(NC23CC4CC(CC(C4)C2)C3)N2CCOCC2)CC1 | D(1A) dopamine receptor (Homo sapiens) (UniProt P21728) | inactive |
| N.N.O=C(O)C1(C(=O)O)CCC1.[Pt+2] | D(1A) dopamine receptor (Homo sapiens) (UniProt P21728) | inactive |
| C[C@H](Cc1ccccc1)Nc1ncnc2c1ncn2[C@@H]1O[C@H](CO)[C@@H](O)[C@H]1O | D(1A) dopamine receptor (Homo sapiens) (UniProt P21728) | inactive |

----------
assay: Primary qHTS for inhibitors of nuclear receptor binding SET domain protein 2 (NSD2) in an RCH-ACV wild type WT cells (2C) (AID 1645877); settings: RCH-ACV (leukaemia line) NSD2 WT (2C) viability, CellTiter-Glo, 72 h; series mostly up to 44.9 µM; also: nearly all actives have a fitted effect of over 70% in size
Inconclusive results are not listed. Active and inactive are the calls of the source. Calls come from the whole dose curve; as a rule, active = well fitted inhibition curve with a large enough effect; inconclusive = small, poorly fitted or top-dose-only effect; inactive = no such curve, though single readings can be large or run the other way.
Outcome codes: active, inactive

| molecule | group |
| --- | --- |
| OC[C@H]1O[C@@H](O[C@@H]2OC=C[C@H]3[C@H](O)[C@@H]4O[C@]4(CO)[C@@H]23)[C@H](O)[C@@H](O)[C@@H]1O | inactive |
| Cc1ccc([N+](=O)[O-])cc1S(=O)(=O)N(C)/N=C\c1cnc2ccc(Br)cn12 | active |
| c1ccc(-c2cnc(Nc3ccc(OCCN4CCCC4)cc3)s2)cc1 | active |
| O=c1[nH]ccc2c(S(=O)(=O)N3CCCNCC3)cccc12 | inactive |
| O=C(Nc1cccc(Nc2nccc(Nc3cccc(C(F)(F)F)c3)n2)c1)C1CC1 | active |
| COc1cc(/C=C(\C#N)C(N)=O)cc(CSc2nc3ccccc3s2)c1O | inactive |
| NC(=O)c1sc(-c2ccsc2)cc1N | inactive |
| Clc1ccc2ncc(-c3cccc(NC4CCNC4)n3)n2c1 (stereo not given) | active |
| OCC(O)CCO/N=C1/C(c2c(O)[nH]c3ccccc23)=Nc2ccccc21 (stereo not given) | active |
| Nc1[nH]nc2nc3ccccc3nc12 | inactive |

----------
assay: KB-8-5-11 Cancer Cell Toxicity qHTS against the NCATS CANVASS Library (AID 1347364); conditions: KB-8-5-11 MDR cells viability, CellTiter-Glo, 72 h; series mostly up to 46.1 µM; also: nearly all actives have a fitted effect of over 75% in size
Inconclusive results are not listed. The source made the active and inactive calls. The call rests on the fitted dose curve; in most records, active means well fitted cell-killing curve with a large enough effect; inconclusive means small, poorly fitted or top-dose-only effect; inactive means flat fitted curve, though single readings scatter.
recordedMetric: outcome

| compound | recordedResult |
| --- | --- |
| CN1C(=O)C2C(N=CN2C)N(C)C1=O (stereo not drawn) | inactive |
| CC(=O)O[C@H]1CC[C@@]2(C)C(CC[C@]3(C)C2CC=C2C4CC(C)(C)CC[C@]4(C)CC[C@]23C)C1(C)C (stereo partly drawn) | inactive |
| C=C(NC(=O)c1csc(-c2nc3c(cc2O)-c2nc(cs2)C(=O)NC(C(C)O)C(=O)N/C(=C(\C)O)c2nc(cs2)C(=O)NC2c4nc(cs4)C(=O)NC(COC(=O)c4c5c6c(cccc6n4O)COC(=O)[C@@H](OC4C[C@](C)(O)[C@H](N(C)C)[C@H](C)O4)C2OC5)c2nc-3cs2)n1)C(N)=O (stereo partly drawn) | inactive |
